All figures here come from ChEMBL document CHEMBL1201862.

I'd appreciate it if you could supply GI50 values for the items below.
- Tested on: SNB-19
- method-summary: NCI tumour cell line growth inhibition, 48 h
Calls of active or inactive are those of the source. Rule as the data show it: active = GI50 up to about 1.1 µM and inactive = higher.

For orientation, consider the following solved cases.
Incoming: Give a short answer stating reported GI50 for O=[N+]([O-])c1c(/C=N/Nc2ccccc2)oc(-c2ccc3c(c2)OCO3)c1-c1ccc2c(c1)OCO2 .
Outgoing: 70.3 µM (inactive)

Incoming: Give a short answer stating reported GI50 for O=C(Nc1ccc(Cl)cc1Cl)c1cc2nc3ccccc3c(=O)n2c2ccccc12 .
Outgoing: > 10 µM (inactive)

Incoming: Give a short answer stating reported GI50 for O=C1C(=C(I)I)c2ccccc2-c2ccccc21 .
Outgoing: 14.4 µM (inactive)

Incoming: Give a short answer stating reported GI50 for O=C(CBr)c1ccc2cc(Br)c3ccccc3c2c1 .
Outgoing: 31.9 µM (inactive)

Incoming: Give a short answer stating reported GI50 for COc1ccc(-c2c(C3=NCCN3)nnn2-c2ccccc2)cc1 .
Outgoing: > 100 µM (inactive)

For the 2 molecules below, give their GI50 values.
1. Cc1c(C(=O)/C=C/c2ccc(N(C)C)cc2)c(=O)n(-c2ccccc2)n1C
2. CC(C)/C(Cl)=N/OC(=O)Nc1ccc(Br)cc1

Outgoing:
> 100 µM (inactive)
20.8 µM (inactive)

---

- System: NCI-H226
- method-summary: NCI tumour cell line growth inhibition, 48 h
Active and inactive are the calls of the source. Cut-off read from the data, not from the text of the source: active = GI50 up to about 1.1 µM and inactive = higher.
assay-readout: GI50

Incoming: Give a short answer stating reported GI50 for CC(C)(CO)CNc1cc(=O)[nH]c(N)n1 .
Outgoing: > 100 µM (inactive)

Incoming: Give a short answer stating reported GI50 for CC(C)(c1ccc(OC#N)cc1)c1ccc(OC#N)cc1 .
Outgoing: > 100 µM (inactive)

Incoming: Give a short answer stating reported GI50 for Cc1cnc2c(c1)C(=O)C1=C(OC(C)(C)CC1O)C2=O (centres undefined) .
Outgoing: 20.1 µM (inactive)

Okay, next one:
Incoming: Give a short answer stating reported GI50 for CN(C)/C=N/c1c2c(nc3ccccc13)CCCC2 .
Outgoing: 36 µM (inactive)

---

- Tested on: Hs-578T
- method-summary: NCI tumour cell line growth inhibition, 48 h
Activity calls are given as the source filed them. No stated cut-off is given here; in the data, active = GI50 up to about 1.1 µM and inactive = higher.
I'd appreciate it if you could supply GI50 values for the items below.

Incoming: Give a short answer stating reported GI50 for O=C1C(Cl)=CC2(C=C1Cl)CCNC1=C2C(=O)c2nc[nH]c2C1=O .
Outgoing: > 100 µM (inactive)

Incoming: Give a short answer stating reported GI50 for C1=N/CCNCCNCC/N=C/c2ccccc2OCc2cccc(n2)COc2ccccc2/1 .
Outgoing: 55.3 µM (inactive)

Incoming: Give a short answer stating reported GI50 for O=C1C(=C(I)I)c2ccccc2-c2ccccc21 .
Outgoing: 7.83 µM (inactive)

Incoming: Give a short answer stating reported GI50 for OC[C@]1(n2nc3ccccc3n2)OC[C@@H]1c1ccccc1 .
Outgoing: 56 µM (inactive)

Incoming: Give a short answer stating reported GI50 for Clc1ccc(C2=CC(c3ccccc3)N3C(=N[C@H]4CCCC[C@@H]43)N2)cc1 (stereo not given in full) .
Outgoing: 3.12 µM (inactive)

Incoming: Give a short answer stating reported GI50 for CCOc1ccccc1/C=C1\NC(=O)N(/C=C2\C(=O)Oc3ccccc3C2=O)C1=O .
Outgoing: 46.7 µM (inactive)

Incoming: Give a short answer stating reported GI50 for C=C[C@@]1(C)CC2CC[C@]3(C)C(C)=CC(=O)CC3[C@]2(C)CC1O (stereo not given in full) .
Outgoing: > 100 µM (inactive)

Incoming: Give a short answer stating reported GI50 for Cn1cc(C2NC(=O)c3ccccc3N2)c2ccccc21 (stereo not given) .
Outgoing: 0.649 µM (active)

Incoming: Give a short answer stating reported GI50 for O=S(=O)(O)c1ccc(/N=N/c2ccc(/N=N/c3c(O)ccc4cc(S(=O)(=O)O)ccc34)cc2)cc1 .
Outgoing: > 100 µM (inactive)

Okay, next one:
Incoming: Give a short answer stating reported GI50 for COC(=O)CCCCC/C(=C\C(=O)C(Cl)(Cl)Cl)OC .
Outgoing: 26.4 µM (inactive)
